Here, each record is paired with measured In vitro Activity Fold Loss data.
Target: T1, human RXFP1 (human, UniProt Q9HBX9 1-757)
T1 sequence (looked up): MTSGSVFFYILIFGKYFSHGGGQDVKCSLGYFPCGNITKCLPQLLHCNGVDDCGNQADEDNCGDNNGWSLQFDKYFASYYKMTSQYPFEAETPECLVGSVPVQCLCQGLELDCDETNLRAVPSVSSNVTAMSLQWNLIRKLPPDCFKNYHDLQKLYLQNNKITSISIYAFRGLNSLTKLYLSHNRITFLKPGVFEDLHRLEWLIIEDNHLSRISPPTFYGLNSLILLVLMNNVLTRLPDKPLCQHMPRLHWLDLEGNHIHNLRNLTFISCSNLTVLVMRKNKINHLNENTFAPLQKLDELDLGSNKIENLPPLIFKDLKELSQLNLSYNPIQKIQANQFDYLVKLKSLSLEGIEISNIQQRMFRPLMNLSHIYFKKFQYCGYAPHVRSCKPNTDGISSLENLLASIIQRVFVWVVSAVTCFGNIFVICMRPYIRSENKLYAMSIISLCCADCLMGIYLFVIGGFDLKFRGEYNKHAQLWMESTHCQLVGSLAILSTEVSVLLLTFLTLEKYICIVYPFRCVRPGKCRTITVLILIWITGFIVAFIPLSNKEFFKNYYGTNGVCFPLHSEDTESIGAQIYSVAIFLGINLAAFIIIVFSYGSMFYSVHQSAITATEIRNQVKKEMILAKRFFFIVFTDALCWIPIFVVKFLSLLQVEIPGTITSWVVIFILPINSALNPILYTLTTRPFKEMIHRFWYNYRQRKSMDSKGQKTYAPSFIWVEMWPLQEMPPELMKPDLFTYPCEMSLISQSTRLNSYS
Assay: cell-based or functional assay
Non-standard residues stand in square brackets, D forms with d. No end group written: not given here. PEG20K = 20 kDa polyethylene glycol, linked to pAF (e.g. via oxime linkage); Phe(4-Ac) = CC(=O)c1ccc(C[C@H](N)C(=O)O)cc1
Provide the reading as a plain figure in fold.

| Binder | Assay Result |
| --- | --- |
| RLX-D-BE5-20KPEG (ligand, not fully specified (bridges); ends and bridges not checked) chain 1: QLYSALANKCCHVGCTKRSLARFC chain 2: DSWM[Phe(4-Ac)](PEG20K)EVIKLCGRELVRAQIAICGMSTWS | 22 |

stdin: // returns reported In vitro Activity Fold Loss for input RLX-D-AL2-20KPEG (ligand, not fully specified; para-acetylphenylalanine (pAF) at position 2 of the A chain, 20K PEGylated) chain 1: QXYSALANKCCHVGCTKRSLARFC chain 2: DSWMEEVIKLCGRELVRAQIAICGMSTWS
stdout: 17
